- TARGET_SYSTEM: UniProt P41279
- Sequence (P41279 30-397): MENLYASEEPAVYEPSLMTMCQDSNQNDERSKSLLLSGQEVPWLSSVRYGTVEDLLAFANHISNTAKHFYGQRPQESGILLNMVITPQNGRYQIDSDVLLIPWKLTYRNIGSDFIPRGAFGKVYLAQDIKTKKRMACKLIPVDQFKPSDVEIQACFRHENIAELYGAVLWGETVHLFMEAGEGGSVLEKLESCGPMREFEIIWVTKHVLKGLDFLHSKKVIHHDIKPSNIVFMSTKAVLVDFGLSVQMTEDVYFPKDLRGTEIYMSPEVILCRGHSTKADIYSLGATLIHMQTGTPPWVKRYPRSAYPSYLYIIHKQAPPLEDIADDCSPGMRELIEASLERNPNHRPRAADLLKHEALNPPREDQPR
- TEST_DESCRIPTION: High Throughput Cot Biochemical Assay
- ASSAY_CONTEXT: IC50 HTRF, Cot HTRF (TR-FRET) biochemical assay

# SMILES, IC50
data = [
    ("CC(C)(C)CNc1c(C#N)cnc2c(F)cc(N[C@H](c3cn(C4(C(N)=O)CCC4)nn3)c3cccc4ncsc34)cc12", "6 nM"),
    ("[2H][C@](Nc1cc(Cl)c2ncc(C#N)c(N[C@H](CC)c3ccccc3)c2c1)(c1ccc(F)nc1)c1cn(C2CC2)nn1", "2 nM"),
    ("COC[C@H](Nc1c(C#N)cnc2c(Cl)cc(N[C@@H](c3cccnc3)c3c[nH]nn3)cc12)c1ccccc1", "6920 nM"),
    ("Cc1ncccc1[C@H](Nc1cc(Cl)c2ncc(C#N)c(Nc3cccc(Cl)c3)c2c1)c1cn(C(C)C)nn1", "10 nM"),
    ("Cc1nc(F)ccc1[C@H](Nc1cc(Cl)c2ncc(C#N)c(NCC(C)(C)C)c2c1)c1cn(CC2(C(F)F)CC2)nn1", "5 nM"),
    ("CC(C)(C)CNc1c(C#N)cnc2c(Cl)cc(N[C@H](c3cn(C4(C(F)F)CC4)nn3)c3cccc4c3CNC4)cc12", "2 nM"),
    ("[2H][C@](Nc1cc(Cl)c2ncc(C#N)c(N[C@H](CC)c3ccccc3)c2c1)(c1ccc(F)nc1)c1cn(C(C)(C)C)nn1", "6 nM"),
    ("N#Cc1cnc2c(Cl)cc(N[C@H](c3cn(CCO)nn3)c3cccnc3Cl)cc2c1Nc1ccc(F)c(Cl)c1", "3 nM"),
    ("CC(C)(C)CNc1c(C#N)cnc2c(Cl)cc(N[C@H](c3cn(C4CC4)nn3)c3cccc4ccncc34)cc12", "1 nM"),
    ("CC(C)(C)CNc1c(C#N)cnc2c(Cl)cc(N[C@H](c3cn(C4(C(F)(F)F)CC4)nn3)c3ccc(Cl)c4ncccc34)cc12", "17 nM"),
    ("Cc1nc(F)ccc1[C@H](Nc1cc(Cl)c2ncc(C#N)c(NCC(C)(C)C)c2c1)c1nnn(C2CC2)c1C#N", "4 nM"),
    ("Cc1nc(F)ccc1[C@H](Nc1cc(Cl)c2ncc(C#N)c(NCC3(C)COC3)c2c1)c1cn(C2(C(F)(F)F)CC2)nn1", "89 nM"),
    ("Cc1nc(F)ccc1[C@H](Nc1cc(Cl)c2ncc(C#N)c(NCC(C)(C)C(F)(F)F)c2c1)c1cn(C23CC(C2)C3)nn1", "2 nM"),
]

The values you see were collected from patent US11066414B2.
